ASSAY_SYSTEM: stromelysin-1 catalytic domain (MMP03) (Homo sapiens)
Construct: SCD (stromelysin-1 catalytic domain); made in house; host or cells: Escherichia coli
TEST_DESCRIPTION: Thiopeptolide assay, stromelysin-1 catalytic domain (SCD, MMP03)
Type: biochemical
CONDITION_DESCRIPTION: Tables 2, 3, 5, 7; read-out: IC50 MMP 3CD
MEASURED_QUANTITY: IC50 (nM)

O=C(CCC(NS(=O)(=O)c1ccc2oc3ccccc3c2c1)C(=O)O)NCCc1cccs1 (stereo not shown) : 2700
O=C(CCc1ccncc1)NCCCCC(NS(=O)(=O)c1ccc2oc3ccccc3c2c1)C(=O)O (stereo not shown) : 9000

P: C=CCNC(=O)NCCCCC(NS(=O)(=O)c1ccc2oc3ccccc3c2c1)C(=O)O (stereo not shown)
Q: CCC(C)CNC(=O)CCC(NS(=O)(=O)c1ccc2oc3ccccc3c2c1)C(=O)O (stereo not shown)
// which entry reports the smaller IC50, P or Q ? Reply briefly: the label of your chosen item.
Q
(Q: 1800 nM, P: 3000 nM)

###

ASSAY_SYSTEM: MMP07 (Homo sapiens)
Construct: made in house; host or cells: Escherichia coli
Sequence (P09237 95-267): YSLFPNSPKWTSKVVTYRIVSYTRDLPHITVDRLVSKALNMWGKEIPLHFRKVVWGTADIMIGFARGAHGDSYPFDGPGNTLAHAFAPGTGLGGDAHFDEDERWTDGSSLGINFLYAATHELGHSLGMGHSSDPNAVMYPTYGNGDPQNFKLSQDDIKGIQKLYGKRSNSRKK
TEST_DESCRIPTION: Thiopeptolide assay, MMP07
Type: biochemical
CONDITION_DESCRIPTION: Tables 2, 3, 5, 7; read-out: IC50 MMP-7
MEASURED_QUANTITY: IC50

CN(C)CCNC(=O)CCC(NS(=O)(=O)c1ccc2oc3ccccc3c2c1)C(=O)O (centres unmarked) : > 100 µM

Below: the item to evaluate.
What IC50 value was documented for this compound, O=C(CCCc1ccccc1)NCCCCC(NS(=O)(=O)c1ccc2oc3ccccc3c2c1)C(=O)O (centres unmarked) ?
> 100 µM

###

ASSAY_SYSTEM: gelatinase A catalytic domain (MMP02)
TEST_DESCRIPTION: Thiopeptolide assay, gelatinase A catalytic domain (GCD, MMP02)
Format: biochemical
CONDITION_DESCRIPTION: Table 1; GCD; read-out: IC50 MMP02
pIC50: −log10 of the molar value.
MEASURED_QUANTITY: pIC50

# count of solved cases: 6
O=C(O)[C@H](CCc1ccccc1)NS(=O)(=O)c1ccc2c(c1)Cc1ccccc1-2 : 7.62
O=C(NCCCC[C@H](NS(=O)(=O)c1ccc2oc3ccccc3c2c1)C(=O)O)OCc1ccccc1 : 6.46
O=C(O)[C@H](CCc1ccccc1)NS(=O)(=O)c1ccc2oc3ccccc3c2c1 : 6.57
O=C(O)[C@H](CCc1ccccc1)NS(=O)(=O)c1ccc2c(c1)oc1ccccc12 : 8.42
O=C(CC[C@H](NS(=O)(=O)c1ccc2oc3ccccc3c2c1)C(=O)O)NCCc1ccccc1 : 7.12
CC(C)C[C@H](CNS(=O)(=O)c1ccc2oc3ccccc3c2c1)CC(=O)O : 4.00

P: O=C(O)[C@H](CCc1ccccc1)NS(=O)(=O)c1ccc2sc3ccccc3c2c1
Q: CCCc1ccc(C(=O)CC(NS(=O)(=O)c2ccc3oc4ccccc4c3c2)C(=O)O)cc1 (centres unmarked)
Please tell me which of the two, P or Q , has the higher reported pIC50 value. Reply briefly: the label of your chosen item.
P
(P: 6.11, Q: 5.62)

###

TEST_DESCRIPTION: MMP Inhibitor Bioassay (plasma levels after gavage)
Assay type: in vivo
CONDITION_DESCRIPTION: rat, po, 50 mg/kg by gavage, 24 hours, read-out: plasma levels at 24 hours postdose
MEASURED_QUANTITY: concentration at 24 h (µM)
Response body: numeric value in µM, unit text excluded.

What concentration at 24 h value was documented for this compound, O=C(O)[C@H](CCc1ccccc1)NS(=O)(=O)c1ccc2oc3ccccc3c2c1 ?
29

###

ASSAY_SYSTEM: stromelysin-1 catalytic domain (MMP03) (Homo sapiens, UniProt P08254)
Construct: SCD (stromelysin-1 catalytic domain); made in house; host or cells: Escherichia coli
Sequence (P08254 100-272 limits assumed): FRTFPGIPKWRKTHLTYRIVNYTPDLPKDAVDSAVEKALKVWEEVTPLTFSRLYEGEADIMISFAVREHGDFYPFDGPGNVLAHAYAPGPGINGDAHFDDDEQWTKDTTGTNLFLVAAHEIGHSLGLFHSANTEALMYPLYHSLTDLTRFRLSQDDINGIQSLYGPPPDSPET
TEST_DESCRIPTION: Thiopeptolide assay, stromelysin-1 catalytic domain (SCD, MMP03)
Format: biochemical
CONDITION_DESCRIPTION: Table 1; SCD; read-out: IC50 MMP03
MEASURED_QUANTITY: IC50 (nM)

# count of solved cases: 4
CC(C)C[C@H](CNS(=O)(=O)c1ccc2oc3ccccc3c2c1)CC(=O)O : 86000
O=C(O)[C@H](CCc1ccccc1)NS(=O)(=O)c1ccc2c(c1)oc1ccccc12 : 13
O=C(CC[C@H](NS(=O)(=O)c1ccc2oc3ccccc3c2c1)C(=O)O)NCCc1ccccc1 : 325
O=C(NCCCC[C@H](NS(=O)(=O)c1ccc2oc3ccccc3c2c1)C(=O)O)OCc1ccccc1 : 180

P: O=C(O)[C@H](CCc1ccccc1)NS(=O)(=O)c1ccc2sc3ccccc3c2c1
Q: CCCc1ccc(C(=O)CC(NS(=O)(=O)c2ccc3oc4ccccc4c3c2)C(=O)O)cc1 (stereo not shown)
// which entry reports the smaller IC50, P or Q ? Reply briefly: the label of your chosen item.
P
(P: 1300 nM, Q: 3700 nM)

###

ASSAY_SYSTEM: MMP01 (Homo sapiens, UniProt P03956)
Construct: purchased Washington University School of Medicine, St. Louis, Mo
Sequence (P03956 100-469): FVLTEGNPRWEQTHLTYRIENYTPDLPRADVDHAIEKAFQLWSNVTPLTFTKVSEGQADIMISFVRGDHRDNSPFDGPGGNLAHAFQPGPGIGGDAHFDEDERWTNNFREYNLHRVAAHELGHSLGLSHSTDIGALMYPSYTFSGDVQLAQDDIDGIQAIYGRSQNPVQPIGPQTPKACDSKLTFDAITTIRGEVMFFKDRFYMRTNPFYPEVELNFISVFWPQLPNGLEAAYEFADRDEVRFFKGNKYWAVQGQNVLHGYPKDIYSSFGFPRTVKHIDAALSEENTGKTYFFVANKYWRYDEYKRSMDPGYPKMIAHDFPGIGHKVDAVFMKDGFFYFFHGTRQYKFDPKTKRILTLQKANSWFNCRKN
TEST_DESCRIPTION: Thiopeptolide assay, MMP01
Format: biochemical
CONDITION_DESCRIPTION: Table 1; read-out: IC50 MMP01
pIC50: −log10 of the molar value.
MEASURED_QUANTITY: pIC50

O=C(O)[C@H](CCc1ccccc1)NS(=O)(=O)c1ccc2sc3ccccc3c2c1 [Example 7] : 4.00
O=C(O)[C@H](CCc1ccccc1)NS(=O)(=O)c1ccc2c(c1)Cc1ccccc1-2 [Example 9] : 4.31

a: O=C(NCCCC[C@H](NS(=O)(=O)c1ccc2oc3ccccc3c2c1)C(=O)O)OCc1ccccc1 [Example 3]
b: O=C(O)[C@H](CCc1ccccc1)NS(=O)(=O)c1ccc2c(c1)oc1ccccc12 [Example 8]
c: CCCc1ccc(C(=O)CC(NS(=O)(=O)c2ccc3oc4ccccc4c3c2)C(=O)O)cc1 (stereo not shown) [Example 6]
d: O=C(CC[C@H](NS(=O)(=O)c1ccc2oc3ccccc3c2c1)C(=O)O)NCCc1ccccc1 [Example 5]
Rank order required: pIC50, descending. # list labels per requested ordering
b, d, a, c

###

ASSAY_SYSTEM: stromelysin-1 catalytic domain (MMP03) (Homo sapiens)
Construct: SCD (stromelysin-1 catalytic domain); made in house; host or cells: Escherichia coli
TEST_DESCRIPTION: Thiopeptolide assay, stromelysin-1 catalytic domain (SCD, MMP03)
Assay type: biochemical
CONDITION_DESCRIPTION: Tables 2, 3, 5, 7; read-out: IC50 MMP 3CD
MEASURED_QUANTITY: IC50 (µM)

# count of solved cases: 2
O=C(NCCCCC(NS(=O)(=O)c1ccc2oc3ccccc3c2c1)C(=O)O)NCc1ccccc1 (stereo not shown) : 1.4
CC(=O)Nc1ccc(S(=O)(=O)NCCCCC(NS(=O)(=O)c2ccc3oc4ccccc4c3c2)C(=O)O)cc1 (stereo not shown) : 8.6

1: O=C(CCC(NS(=O)(=O)c1ccc2oc3ccccc3c2c1)C(=O)O)NCCCCc1ccccc1 (stereo not shown)
2: COc1ccc(OCC(=O)NCCCCC(NS(=O)(=O)c2ccc3oc4ccccc4c3c2)C(=O)O)cc1 (stereo not shown)
Please tell me which of the two, 1 or 2 , has the higher reported IC50 value. Reply briefly: the label of your chosen item.
1

###

ASSAY_SYSTEM: stromelysin-1 catalytic domain (MMP03) (Homo sapiens, UniProt P08254)
Construct: SCD (stromelysin-1 catalytic domain); made in house; host or cells: Escherichia coli
TEST_DESCRIPTION: Thiopeptolide assay, stromelysin-1 catalytic domain (SCD, MMP03)
Type: biochemical
CONDITION_DESCRIPTION: Tables 2, 3, 5, 7; read-out: IC50 MMP 3CD
Method: Hydrolysis of the thiopeptolide substrate Ac-Pro-Leu-Gly-thioester-Leu-Leu-Gly-OEt (Bachem) is used as the primary screen to determine IC50 values for MMP inhibitors. A 100 μL reaction contains 1 mM 5,5'-dithiobis(2-nitrobenzoic acid) (DTNB), 100 μM substrate, 0.1% Brij, enzyme, and inhibitor in the appropriate reaction buffer. Activated full-length enzymes are assayed at 5 nM, Stromelysin Catalytic Domain (SCD) at 10 nM, and Gelatinase A Catalytic Domain (GaCD) at 1 nM. […]
MEASURED_QUANTITY: IC50 (nM)

O=C(CCCc1c[nH]c2ccccc12)NCCCCC(NS(=O)(=O)c1ccc2oc3ccccc3c2c1)C(=O)O (centres unmarked) : 6400
CC(C)CC(C)NC(=O)CCC(NS(=O)(=O)c1ccc2oc3ccccc3c2c1)C(=O)O (centres unmarked) : 400
O=C(CC1=CCCC1)NCCCCC(NS(=O)(=O)c1ccc2oc3ccccc3c2c1)C(=O)O (centres unmarked) : 1000

A: O=C(CCC(NS(=O)(=O)c1ccc2oc3ccccc3c2c1)C(=O)O)NCC(c1ccccc1)c1ccccc1 (centres unmarked)
B: O=C(CCC(NS(=O)(=O)c1ccc2oc3ccccc3c2c1)C(=O)O)NCCc1ccncc1 (centres unmarked)
Please tell me which of the two, A or B , has the higher reported IC50 value. Reply briefly: the label of your chosen item.
B
(B: 1900 nM, A: 1000 nM)

I: Cn1cccc1CCNC(=O)CCC(NS(=O)(=O)c1ccc2oc3ccccc3c2c1)C(=O)O (centres unmarked)
II: O=C(O)C(CCCCNC(=S)NCc1ccccc1)NS(=O)(=O)c1ccc2oc3ccccc3c2c1 (centres unmarked)
III: O=C(O)C(CCCCNC(=S)NC12CC3CC(CC(C3)C1)C2)NS(=O)(=O)c1ccc2oc3ccccc3c2c1 (centres unmarked)
IV: O=C(O)C(CCCCNS(=O)(=O)C=Cc1ccccc1)NS(=O)(=O)c1ccc2oc3ccccc3c2c1 (centres unmarked)
V: COc1ccc(CCC(=O)NCCCCC(NS(=O)(=O)c2ccc3oc4ccccc4c3c2)C(=O)O)cc1 (centres unmarked)
Arrange the 5 entries by IC50 so the values rise. # list labels per requested ordering
V, I, II, IV, III
(V: 900 nM, I: 1400 nM, II: 2300 nM, IV: 4200 nM, III: 9000 nM)

I: O=C(O)C(CCCCNS(=O)(=O)c1ccc(F)cc1)NS(=O)(=O)c1ccc2oc3ccccc3c2c1 (centres unmarked) [Example D1]
II: O=C(Cc1cccs1)NCCCCC(NS(=O)(=O)c1ccc2oc3ccccc3c2c1)C(=O)O (centres unmarked)
III: O=C(Cc1ccc2c(c1)OCO2)NCCCCC(NS(=O)(=O)c1ccc2oc3ccccc3c2c1)C(=O)O (centres unmarked)
IV: O=C(NCCCCC(NS(=O)(=O)c1ccc2oc3ccccc3c2c1)C(=O)O)Nc1ccc(Cl)c(Cl)c1 (centres unmarked)
V: O=C(Cc1ccccc1C(F)(F)F)NCCCCC(NS(=O)(=O)c1ccc2oc3ccccc3c2c1)C(=O)O (centres unmarked)
Arrange the 5 entries by IC50 so the values rise. # list labels per requested ordering
II, III, I, V, IV

I: O=C(CCC(NS(=O)(=O)c1ccc2oc3ccccc3c2c1)C(=O)O)NCc1ccccc1 (centres unmarked)
II: CCCc1ccc(NC(=O)CCC(NS(=O)(=O)c2ccc3oc4ccccc4c3c2)C(=O)O)cc1 (centres unmarked)
III: O=C(O)C(CCCCNC(=O)C1(c2ccccc2)CC1)NS(=O)(=O)c1ccc2oc3ccccc3c2c1 (centres unmarked)
IV: COc1ccc(NC(=O)NCCCCC(NS(=O)(=O)c2ccc3oc4ccccc4c3c2)C(=O)O)cc1 (centres unmarked)
V: CN(C)CCNC(=O)CCC(NS(=O)(=O)c1ccc2oc3ccccc3c2c1)C(=O)O (centres unmarked)
Arrange the 5 entries by IC50 so the values rise. # list labels per requested ordering
II, III, I, IV, V
(II: 600 nM, III: 1400 nM, I: 2700 nM, IV: 8800 nM, V: 22600 nM)

A: Cc1cc(OCCCC(=O)NCCCCC(NS(=O)(=O)c2ccc3oc4ccccc4c3c2)C(=O)O)ccc1Cl (centres unmarked)
B: O=C(CCc1ccc(Cl)cc1)NCCCCC(NS(=O)(=O)c1ccc2oc3ccccc3c2c1)C(=O)O (centres unmarked)
C: CC(C)(Oc1ccc(Cl)cc1)C(=O)NCCCCC(NS(=O)(=O)c1ccc2oc3ccccc3c2c1)C(=O)O (centres unmarked)
Rank order required: IC50, descending. # list labels per requested ordering
C, A, B

a: Cc1ccc(CCC(=O)NCCCCC(NS(=O)(=O)c2ccc3oc4ccccc4c3c2)C(=O)O)cc1 (centres unmarked)
b: COc1ccccc1CCC(=O)NCCCCC(NS(=O)(=O)c1ccc2oc3ccccc3c2c1)C(=O)O (centres unmarked)
// which entry reports the smaller IC50, a or b ? Reply briefly: the label of your chosen item.
b
